tested on: NCI-H1770; experiment: cells; type: functional, cell-based; details: Homo sapiens
Description: SANGER: Inhibition of human NCI-H1770 cell growth in a cell viability assay.
pIC50: −log10 of the molar value.
Readout kind: pIC50

CN(c1ncccc1CNc1nc(Nc2ccc3c(c2)CC(=O)N3)ncc1C(F)(F)F)S(C)(=O)=O | < 5.59
Cn1cc(C2=C(c3ccc(Cl)cc3Cl)C(=O)NC2=O)c2ccccc21 | 6.53
CC1=C2C[C@H]3[C@@H](CC=C4C[C@@H](O)CC[C@@]43C)[C@@H]2CC[C@]12O[C@@H]1C[C@H](C)CN[C@H]1[C@H]2C | < 4.80
C=C1C(=O)O[C@@H]2C3O[C@]3(C)CC/C=C(\C)CC[C@@H]12 (some centres not stated) | < 5.30
COc1ccc(-c2ccc3c(N4CCOC[C@@H]4C)nc(N4CCOC[C@@H]4C)nc3n2)cc1CO | 6.10

[in] Report the value of pIC50 obtained on NCI-H1770 for Cc1cc(Nc2cc(N3CCN(C)CC3)nc(Sc3ccc(NC(=O)C4CC4)cc3)n2)n[nH]1 .
[out] < 5.70

[in] Consider the compound O=C(c1cc(Cc2n[nH]c(=O)c3ccccc23)ccc1F)N1CCN(C(=O)C2CC2)CC1 tested on NCI-H1770; state its pIC50.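 Further: growth inhibition of NCI-H1770 cells determined with a viability readout.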
[out] < 5.30

Origin of the recorded values: ChEMBL document CHEMBL1201861
